System: Rattus norvegicus
procedure_text: In vivo agonist activity at angiotensin 2 receptor in ganglion-blocked vagotomized rat assessed as rise in blood pressure at 250 ng/kg/min compound infused for 10 mins
Assay type: functional
Activity listing for selected molecules.

compound_structure	Activity [mmHg]
CC[C@H](C)[C@H](NC(=O)[C@H](Cc1ccc(O)cc1)NC(=O)[C@@H](NC(=O)[C@H](CCCNC(=N)N)NC(=O)C(C)(C)N)C(C)C)C(=O)N[C@@H](Cc1cnc[nH]1)C(=O)N1CCC[C@H]1C(=O)NC(C)(C)C(=O)O	8.5
CC[C@H](C)[C@H](NC(=O)[C@H](Cc1ccc(O)cc1)NC(=O)[C@@H](NC(=O)[C@H](CCCNC(=N)N)NC(=O)CNC)C(C)C)C(=O)N[C@@H](Cc1cnc[nH]1)C(=O)N1CCC[C@H]1C(=O)NC(C)(C)C(=O)O	13.16

====

Tested on: Rattus norvegicus
procedure_text: In vivo agonist activity at angiotensin 2 receptor in ganglion-blocked vagotomized rat assessed as pressor activity administered as single bolus dose relative to angiotensin-2
Type: functional
Non-standard residues stand in square brackets, D forms with d. Residues, ends and D or L forms follow the SMILES beside them. Sar = CNCC(=O)O
Label Criterion met when Activity is at or above 0.5%; otherwise label Criterion not met.

molecule	target_under_test	class_assignment
CC[C@H](C)[C@H](NC(=O)[C@H](Cc1ccc(O)cc1)NC(=O)[C@@H](NC(=O)[C@H](CCCNC(=N)N)NC(=O)C(C)(C)N)C(C)C)C(=O)N[C@@H](Cc1cnc[nH]1)C(=O)N1CCC[C@H]1C(=O)NC(C)(C)C(=O)O	Rattus norvegicus	Criterion not met
CC[C@H](C)[C@H](NC(=O)[C@H](Cc1ccc(O)cc1)NC(=O)[C@@H](NC(=O)[C@H](CCCNC(=N)N)NC(=O)CNC)C(C)C)C(=O)N[C@@H](Cc1cnc[nH]1)C(=O)N1CCC[C@H]1C(=O)NC(C)(C)C(=O)O	Rattus norvegicus	Criterion met
CC[C@H](C)[C@H](NC(=O)[C@H](Cc1ccc(O)cc1)NC(=O)[C@@H](NC(=O)CN(C)C(=O)CNC)C(C)C)C(=O)N[C@@H](Cc1c[nH]cn1)C(=O)N1CCC[C@H]1C(=O)N[C@H](C(=O)O)[C@@H](C)O (H-[Sar][Sar]VYIHPT-OH)	Rattus norvegicus	Criterion not met
CC[C@H](C)[C@H](NC(=O)[C@H](Cc1ccc(O)cc1)NC(=O)[C@@H](NC(=O)[C@H](CCCN=C(N)N)NC(=O)CNC)C(C)C)C(=O)N[C@@H](Cc1c[nH]cn1)C(=O)N1CCC[C@H]1C(=O)N[C@H](C(=O)O)[C@@H](C)O (H-[Sar]RVYIHPT-OH)	Rattus norvegicus	Criterion met
CC[C@H](C)[C@H](NC(=O)[C@@H]1CCCN1C(=O)[C@H](Cc1c[nH]cn1)NC(=O)[C@@H](NC(=O)[C@H](Cc1ccc(O)cc1)NC(=O)[C@@H](NC(=O)[C@H](CCCN=C(N)N)NC(=O)CNC)C(C)C)[C@@H](C)CC)C(=O)O	Rattus norvegicus	Criterion met
CC[C@H](C)[C@H](NC(=O)[C@@H]1CCCN1C(=O)[C@H](Cc1c[nH]cn1)NC(=O)[C@@H](NC(=O)[C@H](Cc1ccc(O)cc1)NC(=O)[C@@H](NC(=O)[C@H](CCCN=C(N)N)NC(=O)CNC)C(C)C)[C@@H](C)OC)C(=O)O (H-[Sar]RVYT(Me)HPI-OH)	Rattus norvegicus	Criterion met
CC[C@H](C)[C@H](NC(=O)[C@H](Cc1ccc(O)cc1)NC(=O)[C@@H](NC(=O)[C@H](CCCNC(=N)N)NC(=O)CNC)C(C)C)C(=O)N[C@@H](Cc1cnc[nH]1)C(=O)N1CCC[C@H]1C(=O)N[C@H](C(=O)O)[C@@H](C)OC	Rattus norvegicus	Criterion not met
CNCC(=O)N[C@@H](CCCNC(=N)N)C(=O)N[C@H](C(=O)N[C@@H](Cc1ccc(O)cc1)C(=O)N[C@H](C(=O)N[C@@H](Cc1cnc[nH]1)C(=O)N1CCC[C@H]1C(=O)N[C@H](C(=O)O)[C@@H](C)OC)[C@@H](C)OC)C(C)C	Rattus norvegicus	Criterion not met

Where these numbers come from: ChEMBL document CHEMBL3244213
